assayedTarget: Aβ(1-42) amyloid fibrils (Homo sapiens, UniProt P05067)
Sequence (P05067 672-713 limits assumed): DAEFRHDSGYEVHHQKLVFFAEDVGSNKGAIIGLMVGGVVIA
assayDetails: ^3H-AZD2184 competition binding to Aβ(1-42) fibrils in vitro
measurementConditions: competition with [^3H]-AZD2184, Aβ(1-42) amyloid fibrils; average if run more than once
pIC50: −log10 of the molar value.
metric: pIC50

[
  {
    "compound": "CNc1ccc(/C=C/C=C/c2nc3ccc(O)cc3s2)cn1 [PBB3, reference compound]",
    "observedResult": 7.55
  },
  {
    "compound": "O[C@@H]1CCCN(c2ccc(-c3cc4cc(OCCOCCOCCF)ccc4[nH]3)cn2)C1",
    "observedResult": 7.10
  },
  {
    "compound": "COc1ccc2nc(-c3ccc(N4CC[C@H](O)C4)nc3)sc2c1",
    "observedResult": 7.96
  },
  {
    "compound": "Oc1ccc2[nH]c(-c3ccc(N4CCC[C@@H](O)C4)nc3)cc2c1",
    "observedResult": 7.49
  },
  {
    "compound": "OCCC1CN(c2ccc(-c3cc4cc(O)ccc4[nH]3)c(F)n2)C1",
    "observedResult": 7.96
  }
]

P = Oc1ccc2[nH]c(-c3ccc(N4CCC[C@@H](O)C4)nc3F)cc2c1
Q = OCC1(O)CCN(c2ccc(-c3cc4cc(O)ccc4[nH]3)c(F)n2)CC1
Q) Hi! Which is lower in terms of pIC50, the first one P or the second one Q ? Give the label under which the chosen entry appears.
A) P
(P: 7.43, Q: 8.05)
